Source: PubChem BioAssay AID2716

- method.notes: restored growth of temperature-sensitive Mot1-301 yeast – S. cerevisiae, ATP luminescence, 38.5C, SUMOylation pathway inhibitor project, primary screen (AID 2716);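 further: OY570 slx delta 5 strain wells were the positive control but not used for scaling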
- condition.context: S. cerevisiae Mot1-301 growth rescue, at 18.8 µM, hits give high values, percent above DMSO median, 100 means doubled
In all, about 320,000 compounds went through this assay and about 3,300 (1%) were called active. The sample holds actives, similar compounds and a random draw of the others, so the mix is not that of the screen.
Consider the following compounds and their measured growth rescue readings.
parameter: growth rescue (%)

- CC(CN1CCCCC1)c1ccccc1 (configuration not stated): 7.87
- Cc1cc(=O)n2nc(N3CCCC(C(=O)NCc4ccc(Cl)cc4)C3)sc2n1 (configuration not stated): 7.79
- O=C(NCCN1CCOCC1)c1cccc(S(=O)(=O)Nc2ccc(F)cc2)c1: 18.1
- O=C(CSCc1ccc(Cl)cc1)N1CCCCC1: 1570
- O=C(CSCc1ccc(Cl)cc1)N1CCN(Cc2ccc3c(c2)OCO3)CC1: 194
- COC(=O)c1ccc(COc2cc([N+](=O)[O-])cc3cccnc23)cc1: -14.7
- COc1cc(/C=N/O)cc(Br)c1OCc1cccc(Cl)c1: -7.89
